# Tested on: Ipomoea hederacea (IPOHE, morning glory)
# Run description: Pre-emergence herbicidal evaluation
# Format: in vivo
# Settings: rate 0.025 kg/ha, 3 weeks after treatment
So I've got a bunch of compounds here, and I need their IPOHE rating values.

Cc1cc(OCCSC(F)(F)F)nc(Oc2ccnc(C(F)(F)F)c2)c1: 9 (9 - Complete kill)
Cc1cc(OCCC(Cl)SC(F)(F)F)nc(Oc2cc(C(F)(F)F)nn2C)c1 (stereo not shown): 7 (7 - Good herbicidal effect)
Cc1cc(OCC=CSC(F)(F)F)nc(Oc2cc(C(F)(F)F)nn2C)c1: 5 (5 - Definite injury)
Cc1cc(OCCCSC(F)(F)F)nc(Oc2cc(C(F)(F)F)nn2C)c1: 6 (6 - Herbicidal effect)
Cc1cc(OCC=C(Cl)SC(F)(F)F)nc(Oc2cc(C(F)(F)F)nn2C)c1: 8 (8 - Approaching complete kill)

Go through the items and report each one's IPOHE rating.
1. Cc1cc(OCCSC(F)(F)F)nc(Oc2cc(C(F)(F)F)nn2C)c1
2. Cc1cc(OCCCSC(F)(F)F)nc(Oc2ccnc(C(F)(F)F)c2)c1

1. 6 (6 - Herbicidal effect)
2. 8 (8 - Approaching complete kill)
